tested on: NCI-H23 lung; experiment: NCI tumour cell line growth inhibition, 48 h
TGI: recorded values
observable: TGI (µM)

1. O=c1[nH]c2cc([N+](=O)[O-])c(Nc3c4ccccc4nc4ccccc34)c([N+](=O)[O-])c2[nH]1    16
2. COc1ccc(OC)c(C[P+](c2ccccc2)(c2ccccc2)c2ccccc2)c1    11.8
3. COC(=O)c1ccc2c(c1)C(=O)c1c-2n(CCCN)c(=O)c2cc(OC)c(OC)cc12    33.5
4. COc1c(Sc2ccccc2)cc(Sc2ccccc2)c2cccnc12    62.1
5. COC(=O)[C@]1(C)CCC[C@@]2(C)[C@@H]3C[C@@H]4[C@H]5C[C@@]3(CC[C@@H]21)C[C@@]45C    28.2
6. COc1ccc([C@@H](O)c2cc(-c3ncnc4cc(N5CCOCC5)ccc34)c(F)cc2Cl)nn1    94.6
7. Cc1ccc(/C=C2/NC(=S)SC2=O)cc1    64.8
8. COc1ccc(NC(=O)n2nc(/C=C\c3ccc(O)c(OC)c3)cc2/C=C\c2ccc(O)c(OC)c2)cc1    63.8
9. COC1(OC)C=CC(=O)C=C1    10.6
10. CC(C)(Cc1ccccc1)N1C(=O)N1C(C)(C)Cc1ccccc1    65.5
11. CC(/C=C/NNC1=NC(c2ccccc2)C(c2ccccc2)=NN1)Sc1ccccc1N (stereo not given)    29.7

###

tested on: UACC-62 melanoma; assay: NCI tumour cell line growth inhibition, 48 h; in the data active means GI50 below about 0.43 µM; inactive means the rest
Classes used: active, inactive

1) C[C@]12CC[C@@H](OC(=O)N(CCCl)N=O)C[C@@H]1CC[C@@H]1[C@@H]2CC[C@]2(C)C(=O)CC[C@@H]12    inactive
2) CC(=O)c1cccc(-c2cccc(-c3ccn(CCN4CCOCC4)n3)c2)c1    inactive
3) CC1(C)[C@@H](OC(N)=O)C=C[C@]2(CO)[C@H]3CC[C@]4(C)[C@@H](c5ccc(=O)oc5)[C@@H](Cl)C[C@]4(O)C3=CC[C@@H]12    active
4) CC12CC=CCC1CCC1C2CCC2(C)C(c3ccc(=O)oc3)CCC12O (centres undefined)    active

###

TGI: recorded values
tested on: LOX IMVI melanoma; assay: NCI tumour cell line growth inhibition, 48 h
observable: TGI

1. CC(=Nc1cc(Cl)cc(Cl)c1)c1ccncc1    > 100 µM
2. CC1CN=C(c2ccc(CN3CCC(C4CCN(Cc5ccc(C6=NCC(C)N6)cc5)CC4)CC3)cc2)N1 (stereo not given)    56 µM
3. Cc1cc2nc(-c3c(N)ncc(C#N)c3-c3ccc(Cl)cc3)[nH]c2cc1C    26 µM
4. COC(=O)[C@H]1N[C@@H](C(=O)OC)C23CCC[C@H]2CC[C@]1(C(OC)OC)C3    > 100 µM
5. COc1cccc(NC(=O)CC(=O)N2N=C(C)C(N=Nc3ccc(C(=O)O)cc3)C2=O)c1 (stereo not given)    > 100 µM
6. C=CCc1ccccc1C1CC2(C(=O)OC)OC1C(C(=O)OC)=C2C(=O)OC (stereo not given)    > 10 µM
7. CC1(C)[C@@H](OC(N)=O)C=C[C@]2(CO)[C@H]3CC[C@]4(C)[C@@H](c5ccc(=O)oc5)[C@@H](Cl)C[C@]4(O)C3=CC[C@@H]12    0.0106 µM
8. O=C1c2ccccc2C(=O)c2nn(N=P(CP(=Nn3nc4c(n3)C(=O)c3ccccc3C4=O)(c3ccccc3)c3ccccc3)(c3ccccc3)c3ccccc3)nc21    > 100 µM
9. Clc1ccc2ns[s+]c2c1    > 84 µM
10. O=P(O)(O)C=C=C1CCCCC1    > 100 µM
